test system: TK-10; assay: NCI tumour cell line growth inhibition, 48 h
Active and inactive are the calls of the source. Cut-off read from the data, not from the text of the source: active = GI50 up to about 1.1 µM and inactive = higher.
Pick from 1 (active), -1 (inactive) when you respond.

Worked set:
Query block: Hi, do you know how N#CC12CNCC1CN=N2 (configuration not stated) came out in this test?
Result block: -1

Query block: Hi, do you know how O=C(/C=C/c1ccccc1O)c1ccccc1Cl came out in this test?
Result block: -1

Query block: Hi, do you know how C=C1CC(Cn2cc(Br)c(=O)[nH]c2=O)(c2ccc(-c3ccccc3)cc2)OC1=O (configuration not stated) came out in this test?
Result block: 1

Query block: Hi, do you know how ClCc1nn(-c2ccccc2)c(CCl)c1CCl came out in this test?
Result block: -1

Query block: Hi, do you know how Cc1ccc(-n2cc(-c3ccc(Cl)cc3)c3c2N=CN2N=C(c4ccco4)NC32)cc1 (configuration not stated) came out in this test?
Result block: -1

---
Query block: Hi, do you know how COc1cccc(/C=C2\S/C(=N/Nc3nc(C)c(C)s3)NC2=O)c1O came out in this test?
Result block: -1

Query block: Hi, do you know how Cc1ccnc2sc3ccccc3c(=O)c12 came out in this test?
Result block: -1

Query block: Hi, do you know how CCN(CC)Cc1cc(Nc2c3ccccc3nc3c2[nH]c2ccccc23)cc(CN(CC)CC)c1O came out in this test?
Result block: -1

Query block: Hi, do you know how CCOc1ccc(/C(C=O)=C(\Cl)c2ccc(OC)c(OC)c2)cc1 came out in this test?
Result block: -1

Query block: Hi, do you know how CC(=O)NCCSC(=O)c1ccccc1 came out in this test?
Result block: 1

Query block: Hi, do you know how CC(C)(C)NC(=O)C12C3C4C1C1C2C3C41C(=O)NC(C)(C)C (configuration not stated) came out in this test?
Result block: -1

Query block: Hi, do you know how CCOC(=O)NC(=O)c1cn(CCOCCOC(=O)NCCCCCCNC(=O)OCCOCCn2cc(C(=O)NC(=O)OCC)c(=O)[nH]c2=O)c(=O)[nH]c1=O came out in this test?
Result block: -1

Query block: Hi, do you know how COc1cccc(NC(=O)CC(=O)N2N=C(N3c4ccccc4Sc4ccccc43)CC2c2ccccc2)c1 (configuration not stated) came out in this test?
Result block: -1
